assay.explanation: Log P by HPLC on reversed phase columns (EEC directive 79/831 Annex V.A8)
Assay type: physicochemical
run.parameters: method [a]; compounds of formula (I), Table 1.1
Collected LogP values appear next to each entry.

Field: example entries. Status: answers known.
CCOC(=O)C(CC(C)C)NC(=O)c1sc(Cl)c(Br)c1C (stereo not drawn)
4.58^[a]
CCOC(=O)C(NC(=O)c1cc(F)c(Br)s1)C(C)C (racemic)
3.46^[a]
CCOC(=O)C1(NC(=O)c2cc(Br)c(C#N)s2)CC1
2.45^[a]
Cc1c(C(=O)NCC#N)sc(Br)c1Cl
2.54^[a]
CCOC(=O)C1(NC(=O)c2sc(Cl)c(Br)c2C)CC1
3.17^[a]
CCOC(=O)C1(CNC(=O)c2sc(Cl)c(Br)c2C)CC1
3.79^[a]
CCOC(=O)C(Cc1ccccc1)NC(=O)c1cc(Br)c(Cl)s1 (racemic)
4.06^[a]
COC(=O)C(NC(=O)c1sc(Br)c(Br)c1F)C1CC1 (stereo not drawn)
3.43^[a]

Please fill in: LogP reported for CCOC(=O)C(CC(C)C)NC(=O)c1sc(Br)c(I)c1C (stereo not drawn) = 4.66^[a]

Please fill in: LogP reported for N#CC(NC(=O)c1sc(Br)c(Br)c1F)c1ccccc1 (stereo not drawn) = 3.65^[a]

Please fill in: LogP reported for `Cc1c(C(=O)NC2(C#N)CC2)sc(Cl)c1Br` = 2.78^[a]

Please fill in: LogP reported for CCOC(=O)C(Cc1ccccc1)NC(=O)c1sc(Br)c(I)c1C (stereo not drawn) = 4.53^[a]

###

Collected LogP values appear next to each entry.
assay.explanation: Log P by HPLC on reversed phase columns (EEC directive 79/831 Annex V.A8)
Assay type: physicochemical
run.parameters: method [a]
Protocol: In the above tables, measurement of Log P values was performed according to EEC directive 79/831 Annex V.A8 by HPLC (High Performance Liquid Chromatography) on reversed phase columns with the following methods: • ^[a] […] Lambda-max-values were determined using UV-spectra from 200 nm to 400 nm and the peak values of the chromatographic signals.

N#CCNC(=O)c1sc(Cl)c(Br)c1Cl
2.70^[a]
COC(=O)C1(NC(=O)c2cc(Cl)c(Br)s2)CC1
2.48^[a]
COC(=O)C(C)(C)NC(=O)c1sc(Br)c(Cl)c1Br
3.81^[a]
CCOC(=O)CCNC(=O)c1sc(Br)c(Cl)c1Cl
3.47^[a]

Please fill in: LogP reported for `COC(=O)C1(NC(=O)c2sc(Br)c(Br)c2F)CC(F)(F)C1` = 3.37^[a]

###

assay.explanation: Log P by HPLC on reversed phase columns (EEC directive 79/831 Annex V.A8)
Assay type: physicochemical
run.parameters: method [a]
Collected LogP values appear next to each entry.

CCOC(=O)C(CCSC)NC(=O)c1sc(Cl)c(Br)c1Br (stereo not shown)
4.40^[a]

Please fill in: LogP reported for CCOC(=O)C(Cc1ccc(O)cc1)NC(=O)c1sc(Br)c(Br)c1F (stereo not shown) = 3.31^[a]

Please fill in: LogP reported for `COC(=O)CC[C@H](NC(=O)c1sc(Br)c(Br)c1F)C(=O)OC` = 3.07^[a]

Please fill in: LogP reported for `N#CNC(=O)C1(NC(=O)c2sc(Br)c(Br)c2F)CC1` = 2.38^[a]

Please fill in: LogP reported for `COC(=O)CNC(=S)c1sc(Br)c(Br)c1Cl` = 4.07^[a]

Please fill in: LogP reported for CC(C)OC(=O)C(NC(=O)c1sc(Cl)c(Cl)c1Br)C1CC1 (stereo not shown) = 4.89^[a]

Please fill in: LogP reported for CCOC(=O)C(Cc1ccccc1)NC(=O)c1sc(C#N)c(Br)c1Cl (stereo not shown) = 4.13^[a]
